Catalogue of sequences with associated self-splicing fitness (ln)
# protocol: self-splicing fitness, log relative to wild type (ln ratio); higher = more splicing; Tetrahymena group I intron in knt gene, E. coli kanamycin selection, DiMSum; sequences stand for … in CUCUCU…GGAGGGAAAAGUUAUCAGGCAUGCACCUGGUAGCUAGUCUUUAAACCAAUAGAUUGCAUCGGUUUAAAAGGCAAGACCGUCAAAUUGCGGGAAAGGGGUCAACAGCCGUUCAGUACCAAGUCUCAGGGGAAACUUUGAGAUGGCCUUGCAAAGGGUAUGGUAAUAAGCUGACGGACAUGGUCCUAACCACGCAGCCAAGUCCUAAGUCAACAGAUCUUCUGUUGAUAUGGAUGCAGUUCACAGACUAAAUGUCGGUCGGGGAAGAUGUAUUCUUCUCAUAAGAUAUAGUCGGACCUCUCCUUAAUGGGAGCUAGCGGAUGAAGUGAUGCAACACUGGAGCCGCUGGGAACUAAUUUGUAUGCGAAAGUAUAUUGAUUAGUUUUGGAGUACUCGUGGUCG;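 also: selection with 25 µg/mL kanamycin versus none on LB agar overnight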
# conditionDescription: 37 °C
observationType: self-splicing fitness (ln)

| recordSequence | observedValue |
| --- | --- |
| UGUGAGCAAUAUUACGUUCU | -3.12 |
| GGGGAGCAAUAUUACGUGGA | -2.48 |
| ACGCAGCAAUAUUACGCGUG | -2.07 |
| CCGAAGCAAUAUUACGCUGC | -2.4 |
| ACCAAGCAAUAUUACGCCGC | -0.837 |
| AUAAAGCAAUAUUACGCCCC | 0.0897 |
| UAUAAGCAAUAUUACGGGGA | -1.91 |
| GAGGAGCAAUAUUACGGCAA | -0.766 |
| AAUAAGCAAUAUUACGACUC | 0.341 |
| AUUGAGCAAUAUUACGGCUA | -0.81 |
| CCAAAGCAAUAUUACGCGUU | -2.89 |
| UCGAAGCAAUAUUACGUAUG | -1.33 |
| CGCUAGCAAUAUUACGUACG | -1.07 |
| UGGAAGCAAUAUUACGAACC | -0.663 |
| CGAUAGCAAUAUUACGAGGG | -2.14 |
| CAAGAGCAAUAUUACGCUAU | -2.19 |
| GUCGAGCAAUAUUACGUUCU | 0.217 |
| CAGGAGCAAUAUUACGGUGA | -3 |
| AAGCAGCAAUAUUACGGUCC | -0.771 |
| CCCCAGCAAUAUUACGGUUA | -2.61 |
| CUAAAGCAAUAUUACGAGAC | -0.499 |
| UGCAAGCAAUAUUACGACUU | -0.599 |
| GCAGAGCAAUAUUACGUACU | -2.29 |
| UUUCAGCAAUAUUACGGAUG | 0.256 |
| UACAAGCAAUAUUACGAUAG | -0.848 |
| CGCAAGCAAUAUUACGUCCU | -0.366 |
| CAGGAGCAAUAUUACGACCA | -1.27 |
| UUGUAGCAAUAUUACGAAUG | -1.93 |
| UAAUAGCAAUAUUACGACCG | 0.638 |
| GUAGAGCAAUAUUACGGUAG | -1.24 |
| UAUUAGCAAUAUUACGAUGU | -1.06 |
| CCCCAGCAAUAUUACGACUG | -2.97 |
| ACAGAGCAAUAUUACGUCAC | -2.43 |
| GUUGAGCAAUAUUACGACCC | -0.607 |
